# Test system: Escherichia coli
# testDetails: Antibacterial activity against Escherichia coli ATCC 25922 (CO-ADD:GN_001); MIC in CAMBH media using NBS plates, by Resazurin F(560/590)
# Type: functional
# conditions: Concentration 20 uM, ASSAY_TEST Inhibition of Bacterial Growth, detection method Resazurin, Fluorescence (ex560/em590), MEDIA CAMHB, plate type 384well, CORNING #3640, time 18 hr
Provide the reported Inhibition of each item.
State the answer as a number, implicitly in %.

Query string: GET /values?readout=Inhibition&system=Escherichia coli&item= CC(C)(O)C1C2OC(=O)C1C1(O)CC3OC34C(=O)OC2C14C (centres undefined)
Result string: 2.11

Query string: And CC(O)CCC(=O)c1ccoc1 (centres undefined) ?
Result string: 1.51

Query string: Now the compound `CN1CCc2cc3c(cc2[C@H]1[C@@H]1OC(=O)c2c1ccc1c2OCO1)OCO3`
Result string: 3.43

Query string: And then `CC[C@@]1(O)C(=O)OCc2c1cc1n(c2=O)Cc2cc3ccccc3nc2-1` , what is it?
Result string: 5.98

Query string: // next record `CC(=O)OC(C)(C)/C=C/C(=O)[C@](C)(O)[C@H]1[C@H](O)C[C@@]2(C)[C@@H]3CC=C4[C@@H](C=C(O)C(=O)C4(C)C)[C@]3(C)C(=O)C[C@]12C`
Result string: 4.67

Query string: Same read-out for `COc1ccc2c3c([nH]c2c1)[C@H](C=C(C)C)N1C(=O)[C@@H]2CCCN2C(=O)[C@@H]1C3` ?
Result string: 5.9

Query string: // query: COc1ccc2c(c1O)-c1c(OC)c(OC)cc3c1C(C2)N(C)CC3 (centres undefined)
Result string: 4.51

Query string: Lookup O=P1(N(CCCl)CCCl)NCCCO1 (centres undefined) [CYCLOPHOSPHAMIDE ANHYDROUS]
Result string: 1.21

Query string: Now the same for CCCCCC(O)C1C(=O)OC(C)C(O)/C=C/C=C/C=C/C=C/C=C(\C)C(O)C(O)C(O)CC(O)CC(O)CC(O)CC(O)CC1O (centres undefined)
Result string: 2.6

Query string: Query `COc1cccc2c1cc([N+](=O)[O-])c1c(C(=O)O)cc3c(c12)OCO3` next
Result string: 5.35

Query string: Now try `CC[C@H]1CN2CCc3cc(OC)c(OC)cc3[C@@H]2C[C@@H]1C[C@H]1NCCc2c1[nH]c1ccc(O)cc21` .
Result string: 3.63

Query string: Subsequent entry: COc1ccc2c(c1OC)CN1CCc3cc4c(cc3C1C2)OCO4 (centres undefined) [TETRAHYDROBERBERINE]
Result string: 7.87

Query string: Another: OC1CN2CC[C@H](O)[C@@H]2C(O)[C@@H]1O (some centres undefined)
Result string: 3.63

Query string: What do you get for `CC[C@](C)(O)C(=O)O[C@H]1C(=O)O[C@@H]2C[C@H]3C(C)=C[C@H](O)[C@@H](O)[C@]3(C)[C@H]3[C@@]4(O)OC[C@]32[C@@H]1[C@@H](C)[C@H]4O` ?
Result string: 1.71

----------
Assign Inhibition to each entry below.
# Test system: Klebsiella pneumoniae
# conditions: Concentration 20 uM; ASSAY_TEST Inhibition of Bacterial Growth; detection method Absorption (OD600); MEDIA CAMHB; plate type 384well; NBS; CORNING #3640; time 18 hr
# Description: Antibacterial activity against Klebsiella pneumoniae MDR ATCC 70063 (CO-ADD:GN_003); MIC in CAMBH media using NBS plates, by OD(600)
Potency and affinity values are given separately.
# output: bare number, implied unit %

Query string: What does the data say about its Inhibition? Entry: CC(=O)OC(C)(C)/C=C/C(=O)[C@](C)(O)[C@H]1[C@H](O)C[C@@]2(C)[C@@H]3CC=C4[C@@H](C=C(O)C(=O)C4(C)C)[C@]3(C)C(=O)C[C@]12C [CUCURBITACIN E]
Result string: -1.27

Query string: Another compound to check: OC1CN2CC[C@H](O)[C@@H]2C(O)[C@@H]1O (stereo partly specified)
Result string: -1.47

Query string: O=P1(N(CCCl)CCCl)NCCCO1 (stereo unspecified) [CYCLOPHOSPHAMIDE ANHYDROUS] , same question.
Result string: 1.43

Query string: Ok, now CC1OC(=O)C2CC3CCCCC3C(/C=C/C3CCCC(C)N3C)C12 (stereo unspecified)
Result string: 4.75

Query string: For CC[C@@]1(O)C(=O)OCc2c1cc1n(c2=O)Cc2cc3ccccc3nc2-1 [CAMPTOTHECIN] then?
Result string: 5.61

Query string: Then this compound: `CC[C@](C)(O)C(=O)O[C@H]1C(=O)O[C@@H]2C[C@H]3C(C)=C[C@H](O)[C@@H](O)[C@]3(C)[C@H]3[C@@]4(O)OC[C@]32[C@@H]1[C@@H](C)[C@H]4O`
Result string: 10.36

----------
So I've got a bunch of compounds here, and I need their Inhibition values.
# Tested on: Candida albicans
# conditions: 20 µM
# Description: Antifungal activity against Candida albicans ATCC 90028 (CO-ADD:FG_001); MIC in YNB media using NBS plates, by OD630
Entries with a potency or affinity are not part of this list.
Write it as a number; the unit % goes unstated.

Query string: Notebook: pull reported Inhibition for Candida albicans, entry CC(O)CCC(=O)c1ccoc1 (centres undefined)
Result string: -0.15

Query string: Try the compound `C[C@H]1CCC/C=C/[C@@H]2C[C@H](O)C[C@H]2[C@H](O)/C=C/C(=O)O1`
Result string: 51.3

Query string: // next record CC1CCC2C(C)C3C(CC4C5CC=C6CC(OC7OC(CO)C(O)C(OC8OC(CO)C(O)C(O)C8O)C7OC7OC(C)C(O)C(O)C7O)CCC6(C)C5CCC43C)N2C1.Cl (centres undefined)
Result string: -2.24

Query string: Same thing, different compound: C=C1C(C)C2C(Cc3ccccc3)NC(=O)C23C(OC(C)=O)/C=C/C(C)(O)CC(C)C/C=C/C3C1O (centres undefined)
Result string: 1.45

----------
# Tested on: Cryptococcus neoformans
# conditions: Concentration 20 uM; ASSAY_TEST Inhibition of Fungal Growth; detection method Resazurin; Absorption (OD600-OD570); plate type 384well; NBS; CORNING #3640
# Description: Antifungal activity against Cryptococcus neoformans H99 ATCC 208821 (CO-ADD:FG_002); MIC in YNB media using NBS plates, by Resazurin OD(600-570)
Measured potencies and affinities stand elsewhere.
Please respond with reported Inhibition for every item in the list.
// note: answer is a bare numeric in %

Query string: Please give the measured Inhibition for this molecule: COc1ccc2c3c([nH]c2c1)[C@H](C=C(C)C)N1C(=O)[C@@H]2CCCN2C(=O)[C@@H]1C3 [FUMITREMORGIN]
Result string: -5.88

Query string: Now consider C=C1C(=O)O[C@@H]2C[C@@H](C)[C@@H]3C=CC(=O)[C@@]3(C)[C@@H](O)[C@H]12 [HELENALIN] .
Result string: -2.82

Query string: Try this molecule next: CCC/C=C/C=C/C(=O)OC1/C(=C/C(=O)OC)CC2CC(C(C)O)OC(=O)CC(O)CC3CC(OC(C)=O)C(C)(C)C(O)(CC4C/C(=C/C(=O)OC)CC(/C=C/C(C)(C)C1(O)O2)O4)O3 (stereo unspecified)
Result string: -7.31

Query string: Another molecule to look at: CC(O)CCC(=O)c1ccoc1 (stereo unspecified)
Result string: -5.46

Query string: And the next one, COC1C(O)C(C)OC(OC2C(Oc3cccc4c(O)c5c(=O)oc6ccc(C)c7c(=O)oc(c34)c5c67)OC(C)C(O)C2O)C1O (stereo unspecified) ?
Result string: -9.89

Query string: For CCCCCC(O)C1C(=O)OC(C)C(O)/C=C/C=C/C=C/C=C/C=C(\C)C(O)C(O)C(O)CC(O)CC(O)CC(O)CC(O)CC1O (stereo unspecified) then?
Result string: -5.55

Query string: And the next one, CN1CCc2cc3c(cc2[C@H]1[C@@H]1OC(=O)c2c1ccc1c2OCO1)OCO3 [BICUCULLINE] ?
Result string: -11.52

Query string: Next entry: OC1CN2CC[C@H](O)[C@@H]2C(O)[C@@H]1O (stereo partly specified)
Result string: -9.42

Query string: Further, for C=C1C(C)C2C(Cc3ccccc3)NC(=O)C23C(OC(C)=O)/C=C/C(C)(O)CC(C)C/C=C/C3C1O (stereo unspecified) ?
Result string: -3.95

Query string: Then what about the molecule `CC(=O)O[C@@H]1[C@@H](O)C2=C3[C@]4(C)[C@@H]1C(C)(C)C(=O)C[C@@H]4[C@]3(O)[C@H](OC(C)=O)[C@@]1(C[C@@H]1C)C2=O` ?
Result string: -8.42

Query string: Subsequent entry: COc1c2c(c(CC=C(C)C)c3oc(=O)c(-c4ccc(O)cc4)c(O)c13)OC(C)(C)C=C2 [LONCHOCARPIC ACID]
Result string: -11.25

Query string: Another: O=P1(N(CCCl)CCCl)NCCCO1 (stereo unspecified) [CYCLOPHOSPHAMIDE ANHYDROUS]
Result string: -8.46

Query string: Try this molecule next: C=C1C(=O)OC2C1CCC(C)C1(O)C=CC(=O)C21C (stereo unspecified)
Result string: -3.28

Query string: Do the same for `COc1ccc(C(=O)O[C@H]2CC[C@@]3(C)[C@@H]4CC[C@H]5[C@]6(O)C[C@H](O)[C@@]7(O)[C@@H](CN8C[C@@H](C)CC[C@H]8[C@@]7(C)O)[C@]6(O)C[C@@]53OC24O)cc1OC` please
Result string: -9.31

Query string: How about COc1cccc2c1cc([N+](=O)[O-])c1c(C(=O)O)cc3c(c12)OCO3 [ARISTOLOCHIC ACID] ?
Result string: -6.51

Query string: For CC1OC(=O)C2CC3CCCCC3C(/C=C/C3CCCC(C)N3C)C12 (stereo unspecified) then?
Result string: -10.1
